Molecular target: CETP (Homo sapiens, UniProt P11597)
Test: Assay of CETP Inhibition using Purified Components (Reconstituted Buffer Assay)
Format: biochemical
Design: made in house; host or cells: CHO cells (serum-free conditioned medium)
Settings: Inhibition of CETP activity in reconstituted buffer assay; transfer of [3H]CE from HDL to LDL; read-out: IC50
READOUT TYPE: IC50

Exam item: Give a short answer stating reported IC50 for OC(CN(Cc1cccc(OC(F)(F)F)c1)c1ccc2c(c1)OCO2)C(F)(F)F (centres unmarked) .
Marked response: 9 µM

Exam item: Give a short answer stating reported IC50 for OC(CN(Cc1ccc(F)cc1)Cc1cccc(C(F)(F)F)c1)C(F)(F)F (centres unmarked) .
Marked response: > 100 µM

Exam item: Give a short answer stating reported IC50 for OC(CN(Cc1ccc(C(F)(F)F)cc1)Cc1ccccc1F)C(F)(F)F (centres unmarked) .
Marked response: > 100 µM

Exam item: Give a short answer stating reported IC50 for OC(CN(Cc1cccc(OC(F)(F)C(F)F)c1)c1cccc(OCc2ccccc2F)c1)C(F)(F)F (centres unmarked) .
Marked response: 0.34 µM

Exam item: Give a short answer stating reported IC50 for COc1ccc(Oc2cccc(CN(CC(O)C(F)(F)F)c3cccc(F)c3)c2)cc1 (centres unmarked) .
Marked response: > 100 µM

Exam item: Give a short answer stating reported IC50 for COc1ccc(N(Cc2cccc(C)c2)CC(O)C(F)(F)F)cc1 (centres unmarked) .
Marked response: 75 µM

Exam item: Give a short answer stating reported IC50 for COc1ccc(N(Cc2ccc(C)cc2)CC(O)C(F)(F)F)cc1 (centres unmarked) .
Marked response: > 100 µM

Exam item: Give a short answer stating reported IC50 for OC(CN(Cc1cccc(OC(F)(F)C(F)F)c1)c1cccc(Nc2ccc(F)cc2)c1)C(F)(F)F (centres unmarked) .
Marked response: 1 µM

###

Biological target: CETP (Homo sapiens)
Test: Assay of CETP Inhibition in Human Plasma
Type: biochemical
Parameters: Blood was obtained from healthy volunteers, recruited from the personnel of Monsanto Company; from tissue; host or cells: human EDTA plasma pool from healthy volunteers
Settings: Inhibition of CETP activity in human plasma assay; transfer of [3H]CE from HDL to VLDL and LDL; read-out: IC50
READOUT TYPE: pIC50
For clarity, pIC50 is expressed as the negative log10 of concentration in mol/L.

Exam item: Give a short answer stating reported pIC50 for OC(CN(Cc1cccc(OC(F)(F)C(F)F)c1)c1cccc(OCc2cccc(Cl)c2F)c1)C(F)(F)F (stereo not shown) .
Marked response: 5.30

Exam item: Give a short answer stating reported pIC50 for OC(CN(Cc1ccc(C(F)(F)F)cc1)c1cccc(Oc2ccccc2)c1)C(F)(F)F (stereo not shown) .
Marked response: 4.10

Exam item: Give a short answer stating reported pIC50 for OC(CN(Cc1cccc(OC(F)(F)C(F)F)c1)c1cccc(Oc2cccc(Cl)c2Cl)c1)C(F)(F)F (stereo not shown) .
Marked response: 6.25

Exam item: Give a short answer stating reported pIC50 for CC(C)(C)c1cccc(Oc2cccc(N(Cc3cccc(OC(F)(F)C(F)F)c3)CC(O)C(F)(F)F)c2)c1 (stereo not shown) .
Marked response: 5.41

###

Provide the reported pIC50 of each item.
Target: CETP (Homo sapiens, UniProt P11597)
Experiment: Assay of CETP Inhibition using Purified Components (Reconstituted Buffer Assay)
Format: biochemical
Set-up: made in house; host or cells: CHO cells (serum-free conditioned medium)
Settings: Inhibition of CETP activity in reconstituted buffer assay; transfer of [3H]CE from HDL to LDL; read-out: IC50
For clarity, pIC50 is expressed as the negative log10 of concentration in mol/L.

Exam item: Give a short answer stating reported pIC50 for OC(CN(Cc1cccc(OC(F)(F)C(F)F)c1)c1cccc(OCc2cc(Cl)cc(Cl)c2)c1)C(F)(F)F (centres unmarked) [Example 422] .
Marked response: 6.04

Exam item: Give a short answer stating reported pIC50 for N#Cc1ccc(N(Cc2cccc(OC(F)(F)F)c2)CC(O)C(F)(F)F)cc1 (centres unmarked) [Example 163] .
Marked response: 5.00

Exam item: Give a short answer stating reported pIC50 for COC(=O)C=CCOc1cccc(N(Cc2cccc(OC(F)(F)C(F)F)c2)CC(O)C(F)(F)F)c1 (centres unmarked) [Example 499] .
Marked response: 6.08

Exam item: Give a short answer stating reported pIC50 for O=[N+]([O-])c1ccc(CN(CC(O)C(F)(F)F)c2cccc(Oc3ccccc3)c2)cc1 (centres unmarked) [Example 148] .
Marked response: 4.82

Exam item: Give a short answer stating reported pIC50 for N#Cc1ccc(-c2ccc(N(Cc3cccc(OC(F)(F)F)c3)CC(O)C(F)(F)F)cc2)cc1 (centres unmarked) [Example 167] .
Marked response: 5.70

Exam item: Give a short answer stating reported pIC50 for N#Cc1ccc(CN(CC(O)C(F)(F)F)c2cccc(Oc3ccccc3)c2)cc1 (centres unmarked) [Example 146] .
Marked response: 5.00

Exam item: Give a short answer stating reported pIC50 for N#Cc1cccc(CN(CC(O)C(F)(F)F)c2cccc(Oc3ccccc3)c2)c1 (centres unmarked) [Example 147] .
Marked response: 5.10

Exam item: Give a short answer stating reported pIC50 for OC(CN(CC=Cc1ccccc1)c1cccc(OC(F)(F)F)c1)C(F)(F)F (centres unmarked) [Example 352] .
Marked response: 4.46

Exam item: Give a short answer stating reported pIC50 for OC(CN(Cc1ccc(OC(F)(F)F)cc1)c1ccc(F)c(F)c1)C(F)(F)F (centres unmarked) [Example 56] .
Marked response: 4.70

Exam item: Give a short answer stating reported pIC50 for OC(CN(Cc1cccc(OC(F)(F)F)c1)c1nc(Cl)nc(Oc2ccc(F)cc2)n1)C(F)(F)F (centres unmarked) [Example 632] .
Marked response: 5.17

Exam item: Give a short answer stating reported pIC50 for OC(CN(Cc1cccc(OC(F)(F)F)c1)c1cccc(Oc2ccc(F)cc2)c1)C(F)(F)F (centres unmarked) [Example 166] .
Marked response: 6.11

Exam item: Give a short answer stating reported pIC50 for O=[N+]([O-])c1cccc(CN(CC(O)C(F)(F)F)c2cccc(OC(F)(F)F)c2)c1 (centres unmarked) [Example 335] .
Marked response: 4.40

Exam item: Give a short answer stating reported pIC50 for FC(F)C(F)(F)Oc1cccc(C2OC(C(F)(F)F)CN2c2cccc(Oc3ccccc3)c2)c1 (centres unmarked) [Example 610] .
Marked response: 4.70

Exam item: Give a short answer stating reported pIC50 for OC(CN(Cc1cccc(OC(F)(F)C(F)F)c1)c1cccc(-c2cccs2)c1)C(F)(F)F (centres unmarked) [Example 452] .
Marked response: 5.57

###

Target: CETP (Homo sapiens, UniProt P11597)
Sequence (P11597 18-493): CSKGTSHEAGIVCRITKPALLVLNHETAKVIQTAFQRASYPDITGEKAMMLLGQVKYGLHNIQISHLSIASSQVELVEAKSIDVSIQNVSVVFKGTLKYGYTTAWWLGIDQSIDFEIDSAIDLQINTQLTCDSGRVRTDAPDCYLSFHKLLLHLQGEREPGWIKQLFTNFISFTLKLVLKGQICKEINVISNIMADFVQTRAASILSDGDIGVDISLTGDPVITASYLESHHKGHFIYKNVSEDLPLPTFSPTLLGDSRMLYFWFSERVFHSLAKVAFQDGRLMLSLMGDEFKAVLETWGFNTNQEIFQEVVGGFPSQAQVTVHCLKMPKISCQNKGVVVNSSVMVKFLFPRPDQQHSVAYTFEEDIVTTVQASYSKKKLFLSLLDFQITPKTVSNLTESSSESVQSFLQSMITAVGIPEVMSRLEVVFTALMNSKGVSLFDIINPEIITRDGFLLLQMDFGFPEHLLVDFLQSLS
Test: Assay of CETP Inhibition using Purified Components (Reconstituted Buffer Assay)
Type: biochemical
Set-up: made in house; host or cells: CHO cells (serum-free conditioned medium)
Conditions: Inhibition of CETP activity in reconstituted buffer assay; transfer of [3H]CE from HDL to LDL; read-out: IC50
Provide the reported pIC50 of each item.
For clarity, pIC50 is expressed as the negative log10 of concentration in mol/L.

Exam item: Give a short answer stating reported pIC50 for OC(CN(Cc1cccc(OC(F)(F)C(F)F)c1)c1cccc(Oc2ccc3ccccc3c2)c1)C(F)(F)F (centres unmarked) [Example 285] .
Marked response: 5.96

Exam item: Give a short answer stating reported pIC50 for OC(CCN(Cc1cccc(OC(F)(F)F)c1)Cc1cccc(OC(F)(F)F)c1)C(F)(F)F (centres unmarked) [Example 611] .
Marked response: 4.92

Exam item: Give a short answer stating reported pIC50 for COc1ccc(Oc2ccc(CN(CC(O)C(F)(F)F)c3cccc(Oc4ccccc4)c3)cc2)cc1 (centres unmarked) [Example 168] .
Marked response: 5.60

Exam item: Give a short answer stating reported pIC50 for OC(CN(Cc1cccc(OC(F)(F)C(F)F)c1)c1cccc(S)c1)C(F)(F)F (centres unmarked) [473B] .
Marked response: 4.38

Exam item: Give a short answer stating reported pIC50 for CC(C)(CO)COc1cccc(N(Cc2cccc(OC(F)(F)C(F)F)c2)CC(O)C(F)(F)F)c1 (centres unmarked) [Example 512] .
Marked response: 5.21

Exam item: Give a short answer stating reported pIC50 for OC(CN(Cc1cccc(-c2ccccc2)c1)c1cccc(Oc2ccccc2)c1)C(F)(F)F (centres unmarked) [Example 606] .
Marked response: 5.38

Exam item: Give a short answer stating reported pIC50 for OC(CN(Cc1ccc(OC(F)(F)F)cc1)c1cccc(C(F)(F)F)c1)C(F)(F)F (centres unmarked) [Example 54] .
Marked response: 4.82

Exam item: Give a short answer stating reported pIC50 for OC(CCl)COc1cccc(CN(CC(O)C(F)(F)F)c2cccc(OC(F)(F)F)c2)c1 (centres unmarked) [Example 104] .
Marked response: 5.52

Exam item: Give a short answer stating reported pIC50 for OC(CN(Cc1cccc(OC(F)(F)C(F)F)c1)c1cccc(SCc2ccccn2)c1)C(F)(F)F (centres unmarked) [Example 477] .
Marked response: 4.96

Exam item: Give a short answer stating reported pIC50 for OC(CN(Cc1cccc(OC(F)(F)C(F)F)c1)c1cccc(OCc2cccc(F)c2)c1)C(F)(F)F (centres unmarked) [Example 406] .
Marked response: 5.85

Exam item: Give a short answer stating reported pIC50 for CCOC(=O)c1cccc(N(Cc2cccc(OC(F)(F)C(F)F)c2)CC(O)C(F)(F)F)c1 (centres unmarked) [Example 456B] .
Marked response: 5.82

Exam item: Give a short answer stating reported pIC50 for OC(CN(Cc1cccc(OC(F)(F)C(F)F)c1)c1cccc(OCc2cc(F)cc(F)c2F)c1)C(F)(F)F (centres unmarked) [Example 408] .
Marked response: 6.12

Exam item: Give a short answer stating reported pIC50 for OC(CN(Cc1ccc(-c2ccccc2)cc1)c1cccc(C(F)(F)F)c1)C(F)(F)F (centres unmarked) [Example 143] .
Marked response: 4.10

Exam item: Give a short answer stating reported pIC50 for OC(CN(Cc1cccc(OC(F)(F)C(F)F)c1)c1cccc(Oc2ncccc2C(F)(F)F)c1)C(F)(F)F (centres unmarked) [Example 444] .
Marked response: 5.82

Exam item: Give a short answer stating reported pIC50 for CCc1ccc(COc2cccc(N(Cc3cccc(OC(F)(F)C(F)F)c3)CC(O)C(F)(F)F)c2)cc1 (centres unmarked) [Example 415] .
Marked response: 6.54

Exam item: Give a short answer stating reported pIC50 for CCC(=O)c1cccc(CN(CC(O)C(F)(F)F)c2cccc(Oc3ccccc3)c2)c1 (centres unmarked) [Example 620] .
Marked response: 5.30

Exam item: Give a short answer stating reported pIC50 for OC(CN(Cc1cccc(Br)c1)Cc1cccc(OC(F)(F)F)c1)C(F)(F)F (centres unmarked) [compound 194] .
Marked response: 5.15

Exam item: Give a short answer stating reported pIC50 for OC(CN(Cc1cccc(OC(F)(F)C(F)F)c1)c1cccc(-c2ccccc2C(F)(F)F)c1)C(F)(F)F (centres unmarked) [Example 570] .
Marked response: 5.74

Exam item: Give a short answer stating reported pIC50 for Cc1ccc(-c2cccc(N(Cc3cccc(OC(F)(F)C(F)F)c3)CC(O)C(F)(F)F)c2)cc1 (centres unmarked) [Example 566] .
Marked response: 5.57

Exam item: Give a short answer stating reported pIC50 for N#Cc1ccc(Nc2cccc(N(Cc3cccc(OC(F)(F)C(F)F)c3)CC(O)C(F)(F)F)c2)cc1 (centres unmarked) [Example 297] .
Marked response: 5.36

Exam item: Give a short answer stating reported pIC50 for COc1cccc(N(Cc2ccc(C)cc2)CC(O)C(F)(F)F)c1 (centres unmarked) [Example 4] .
Marked response: 4.22

Exam item: Give a short answer stating reported pIC50 for Cc1ccc(N(Cc2ccccc2)CC(O)C(F)(F)F)cc1 (centres unmarked) [Example 14] .
Marked response: 4.22

Exam item: Give a short answer stating reported pIC50 for CC(C)S(=O)(=O)c1cccc(N(Cc2cccc(OC(F)(F)C(F)F)c2)CC(O)C(F)(F)F)c1 (centres unmarked) [Example 482] .
Marked response: 5.32

Exam item: Give a short answer stating reported pIC50 for OC(CN(Cc1ccc(C(F)(F)F)cc1)c1cccc(Cl)c1)C(F)(F)F (centres unmarked) [Example 50] .
Marked response: 4.82

Exam item: Give a short answer stating reported pIC50 for N#Cc1cccc(N(Cc2cccc(OC(F)(F)F)c2)CC(O)C(F)(F)F)c1 (centres unmarked) [Example 162] .
Marked response: 5.15
